# reported growth; entries follow
test system: RXF 393 renal; assay: NCI-60 one-dose screen, 48 h (100 = growth as untreated, 0 = no growth, -100 = all killed); conditions: 10 µM unless noted
This is part of a sample that, as a whole, favours compounds with a hit. Of some 83,000 tested, about 20% had one in any assay.
Just the number please, in %, no unit attached.

# count of solved cases: 6
Q) What measured growth goes with `CCCC(=O)Oc1ccc(/C(=C(\C)c2ccc(Cl)cc2)c2ccc(OCCN(CC)CC)cc2)cc1` ?
A) -79.5

Q) What measured growth goes with COc1ccc2c(c1)OC(N(C(C)=O)C(C)=O)=C(C#N)C2c1ccc(F)cc1 (stereo unspecified) ?
A) -2.33

Q) What measured growth goes with CC1CCC(C(C)C)C(NN)C1 (stereo unspecified) ?
A) 115

Q) What measured growth goes with `CC(C)(C)C(=O)/C=c1/[nH]c(=O)/c(=C/c2ccccc2O)s1` ?
A) 62.7

Q) What measured growth goes with `C=C1c2c(Cl)ccc(O)c2C(O)=C2C(=O)[C@]3(O)C(O)=C(C(N)=O)C(=O)[C@@H](N(C)C)[C@@H]3[C@@H](O)[C@H]12` ?
A) 12.4

Q) What measured growth goes with `COc1cc(Cn2cc3c(c2)-c2onc(CO)c2CC3)cc(OC)c1OC` ?
A) 95.8

Further cases:
Q) What measured growth goes with `CC(=O)Oc1ccc(C(OC(C)=O)OC(C)=O)cc1` ?
A) 115

Q) What measured growth goes with `O=[N+]([O-])c1ccc(NS(=O)(=O)c2ccccc2)c2ccccc12` ?
A) 41.6

Q) What measured growth goes with `O=C(O)c1cn(C2CC2)c2cc(N3CCN(C(=O)CSc4nc(NS(=O)(=O)c5ccccc5)cc(=O)[nH]4)CC3)c(F)cc2c1=O` ?
A) 112

Q) What measured growth goes with `C#CCn1c(-c2cc(OC)c(OC)cc2Br)nc(-c2ccccc2)c1-c1ccccc1` ?
A) 41.3

Q) What measured growth goes with `CC(=O)Cc1cccnc1` ?
A) 103

Q) What measured growth goes with `CCn1cc(/C=C2\Oc3cc(OCC#N)ccc3C2=O)c2cc(OC)ccc21` ?
A) -11.3

Q) What measured growth goes with `CN(C)CC/C=C1\c2ccccc2Sc2ccc(Cl)cc21` ?
A) 41.2

Q) What measured growth goes with `O=c1[nH]ccc2nc(N3CCC(O)CC3)nc(Nc3cccc(C(F)(F)F)c3)c12` ?
A) 54.4

Q) What measured growth goes with CN1CCN(CC(O)COc2c(Br)c(Br)c(Br)c3c2OC(C)(C)C3)CC1 (stereo unspecified) ?
A) 29.4

Q) What measured growth goes with `CCCCOc1nc2ccc(Cl)cc2cc1/C=C/C(=O)/C=C/c1ccc(OC)cc1` ?
A) 119

###

test system: SK-OV-3 ovarian; assay: NCI-60 one-dose screen, 48 h; settings: 10 µM unless noted
About 83,000 compounds went through this panel and 20% of them were active in at least one assay; those are over-represented in the sample as a whole. Calls of active or inactive are those of the source. The calls were made as follows: active = growth percent below 10; inactive = the rest.
Select the matching outcome among yes (1) (active), no (0) (inactive)

Q) Hey, what did the test say about `Nc1ncnc2c1c(-c1ccc(Oc3ccccc3)cc1)nn2C[C@H]1SSC[C@H]1O` ?
A) yes (1)

Q) Hey, what did the test say about `O=C(Nc1ccc(-n2cc(-c3ccncc3)c(-c3ccc(O)c(Cl)c3)n2)cc1)Nc1cc(C(F)(F)F)cc(C(F)(F)F)c1` ?
A) no (0)

Q) Hey, what did the test say about `Cc1ccc2[nH]c3nc4cccnc4c(C)c3c2c1` ?
A) no (0)

Q) Hey, what did the test say about `CCn1c(SCC(=O)c2ccc(Br)cc2)nnc1-c1cc2c([nH]c3ccccc32)c(-c2cccc(O)c2)n1` ?
A) no (0)

Now for a further molecule.
Q) Hey, what did the test say about `CCCCOc1nc2ccc(Cl)cc2cc1/C=C/C(=O)/C=C/c1ccc(OC)cc1` ?
A) no (0)

###

test system: NCI-H226 lung; assay: NCI-60 one-dose screen, 48 h (100 = growth as untreated, 0 = no growth, -100 = all killed); settings: 10 µM unless noted
Compounds without any hit were thinned out: in the full panel of roughly 83,000, 20% have a hit.
Label Y when growth is strictly below 80%; at or above that, label N.

Reference set (2 entries):
Q) Please let me know if `COc1ccc(-c2nn(-c3ccc(NC(=O)Nc4ccc(Cl)c(C(F)(F)F)c4)cc3)cc2-c2ccncc2)cc1Cl` shows growth below 80%.
A) Y

Q) Please let me know if `CCn1cc(/C=C2\Oc3cc(OCC#N)ccc3C2=O)c2cc(OC)ccc21` shows growth below 80%.
A) N

Further cases:
Q) Please let me know if `CN(C)c1ncc(C#Cc2c(F)cccc2F)c2ccccc12` shows growth below 80%.
A) N

Q) Please let me know if `c1ccc(-c2nc3sc(C(c4ccccc4)c4ccccc4)nn3c2-c2ccccc2)cc1` shows growth below 80%.
A) N

Q) Please let me know if COc1ccc2c(c1)OC(N(C(C)=O)C(C)=O)=C(C#N)C2c1ccc(F)cc1 (stereo not given) shows growth below 80%.
A) Y

###

system: HOP-62 NSCLC; experiment: NCI-60 one-dose screen, 48 h (100 = growth as untreated, 0 = no growth, -100 = all killed); settings: 10 µM unless noted
This is part of a sample that, as a whole, favours compounds with a hit. Of some 83,000 tested, about 20% had one in any assay.
outcome measure: growth (%)
Just the number please, in %, no unit attached.

# count of solved cases: 4
Q) What measured growth goes with `C#C[C@@]1(O)[C@@H](CO)O[C@@H](n2cc(C(F)(F)F)c3c(N)ncnc32)[C@@H]1O` ?
A) 7.02

Q) What measured growth goes with `CCN(CC)CCN1C(=O)c2c(c3c4ccccc4[nH]c3c3[nH]c4ccccc4c23)C1=O` ?
A) 64.7

Q) What measured growth goes with `Fc1ccc(/C=N/n2c(-c3cc(Cl)cc(Cl)c3Cl)nn(CNc3ccc(Cl)nn3)c2=S)cc1` ?
A) 82.4

Q) What measured growth goes with `Nc1ccc(S(=O)(=O)Nc2ccnn2-c2ccccc2)cc1` ?
A) 112

// below: growth requested for another compound
Q) What measured growth goes with `COc1ccc(/C(=C/c2cc(OC)c(OC)c(OC)c2)[N+](=O)[O-])cc1` ?
A) 68.3

###

system: SF-539 CNS; assay: NCI-60 one-dose screen, 48 h (100 = growth as untreated, 0 = no growth, -100 = all killed); conditions: 10 µM unless noted
This is part of a sample that, as a whole, favours compounds with a hit. Of some 83,000 tested, about 20% had one in any assay. Active and inactive are the calls of the source. The calls were made as follows: active = growth percent below 10; inactive = the rest.
# reported growth; entries follow

# count of solved cases: 3
Q) What measured growth goes with COc1ccc(/C=N/C2=NNC(C)(c3ccccc3O)N2C(Cc2c[nH]c3ccccc23)C(=O)O)cc1 (stereo not given) ?
A) 45.2% (inactive)

Q) What measured growth goes with `CCCCOc1c(N)cccc1C(=O)OCCN(CC)CC` ?
A) 104% (inactive)

Q) What measured growth goes with Cc1cn(C2CC(N=[N+]=[N-])C(COP(=O)(O)OP(=O)(O)OP(=O)(O)O)O2)c(=O)[nH]c1=O (stereo not given) ?
A) 114% (inactive)

Further cases:
Q) What measured growth goes with `CCCCOc1c(N)cc(Cl)cc1C(=O)OCCN(CC)CC` ?
A) 104% (inactive)

Q) What measured growth goes with `COc1ccc(-c2nn(-c3ccc(NC(=O)Nc4ccc(Cl)c(C(F)(F)F)c4)cc3)cc2-c2ccncc2)cc1Cl` ?
A) -1.2% (active)

Q) What measured growth goes with `CCCCn1c(-c2cccc(OC)c2)nc2cc(OC)c(OC)cc2c1=O` ?
A) 108% (inactive)

Q) What measured growth goes with `O=C(Nc1cccc(-n2ccc3c(NC(=O)c4ccccc4)nccc32)c1)c1cccc(C(F)(F)F)c1` ?
A) 4.4% (active)

Q) What measured growth goes with `COc1cc(/C=C/C(=O)c2c(C)[n+]([O-])c3ccccc3[n+]2[O-])ccc1O` ?
A) 100% (inactive)

Q) What measured growth goes with `Clc1ccc(CN2COc3c(ccc4cccnc34)C2)cc1Cl` ?
A) -36.7% (active)

Q) What measured growth goes with `CCn1c(SCC(=O)c2ccc(Br)cc2)nnc1-c1cc2c([nH]c3ccccc32)c(-c2cccc(O)c2)n1` ?
A) 60.9% (inactive)

###

Tested on: HOP-62 NSCLC
Assay: NCI-60 one-dose screen, 48 h (100 = growth as untreated, 0 = no growth, -100 = all killed)
Conditions: 10 µM unless noted
Procedure: Growth inhibition of the HOP-62 human Non-Small Cell Lung tumor cell line is measured as a screen for anti-cancer activity. Cells are grown in 96 well plates and exposed to the test compound for 48 hours. Compounds are tested at a single concentration, which is 10^-5 M for most compounds. The reported endpoint is percent growth (GI% or GIPRCNT), where numbers from 0 - 100% represent growth inhibition, and numbers from -100% - 0 represent cell death. […]
About 83,000 compounds went through this panel and 20% of them were active in at least one assay; those are over-represented in the sample as a whole.
# reported growth; entries follow
Just the number please, in %, no unit attached.

Q) What measured growth goes with CC(C)CNCC(O)COc1ccc(C(C)(C)c2ccc(OCC(O)CNCC(C)C)cc2)cc1 (stereo not drawn) ?
A) 64.3

Further cases:
Q) What measured growth goes with `C=CCn1c(SCC(=O)Nc2ccc(/C(C)=N\O)cc2)nnc1-c1cc(-c2ccc(OC)cc2)nc2ccccc12` ?
A) 38.5

Q) What measured growth goes with `O=C1C(SCCO)=C(SCCO)C(=O)N1c1ccc(-c2ccccc2)cc1` ?
A) 91.5

Q) What measured growth goes with `CN(C)c1ncc(C#Cc2c(F)cccc2F)c2ccccc12` ?
A) 88.1

Q) What measured growth goes with `CCOC(=O)c1noc2c1CCc1c-2cn(Cc2ccc(OC)cc2)c1-c1cc(OC)c(OC)c(OC)c1` ?
A) 22.8

Q) What measured growth goes with `Cl[C@@H]1CCO[C@H](c2cc3ccccc3c3ccccc23)C1` ?
A) 98.8

Q) What measured growth goes with `CC(=O)Oc1ccc(C(OC(C)=O)OC(C)=O)cc1` ?
A) 95

Q) What measured growth goes with CCC1S/C(=N\N=C(/C)c2cc3ccccc3o2)N(c2ccccc2)C1=O (stereo not drawn) ?
A) 101

Q) What measured growth goes with `N#CC(C#N)=C(C#N)c1c[nH]c2ccccc12` ?
A) 81.2

Data provenance is PubChem BioAssay (NCI).
